Numbers sourced from the supplement of paper PMC9112550.

tested on: Escherichia coli TOP10; assay: shrunken log2 fold change of peptide-encoding DNA abundance (4.5 h post-induction vs induction); higher = less antimicrobial activity (less host growth inhibition); settings: time post-induction: 4.5 h; library: site-saturation at positions 5, 18, 19, 20
# shrunken log2 fold change >= -0.005 gives Y, anything below gives N

Query: Exam item: decide whether the reported shrunken log2 fold change for RRIRLRPPRLPRPRPRPGSHPRP is at least -0.005.
Response: Y

Query: Exam item: decide whether the reported shrunken log2 fold change for RRIRNRPPRLPRPRPRPMWPPRP is at least -0.005.
Response: Y

Query: Exam item: decide whether the reported shrunken log2 fold change for RRIRERPPRLPRPRPRPERIPRP is at least -0.005.
Response: N

Query: Exam item: decide whether the reported shrunken log2 fold change for RRIRTRPPRLPRPRPRPRYMPRP is at least -0.005.
Response: N

Query: Exam item: decide whether the reported shrunken log2 fold change for RRIRYRPPRLPRPRPRPFENPRP is at least -0.005.
Response: N

Query: Exam item: decide whether the reported shrunken log2 fold change for RRIRHRPPRLPRPRPRPPHYPRP is at least -0.005.
Response: Y

Query: Exam item: decide whether the reported shrunken log2 fold change for RRIRYRPPRLPRPRPRPCTAPRP is at least -0.005.
Response: N

Query: Exam item: decide whether the reported shrunken log2 fold change for RRIRGRPPRLPRPRPRPKVRPRP is at least -0.005.
Response: Y

Query: Exam item: decide whether the reported shrunken log2 fold change for RRIRLRPPRLPRPRPRPNNDPRP is at least -0.005.
Response: N

Query: Exam item: decide whether the reported shrunken log2 fold change for RRIRARPPRLPRPRPRPRTGPRP is at least -0.005.
Response: Y

Query: Exam item: decide whether the reported shrunken log2 fold change for RRIRCRPPRLPRPRPRPENPPRP is at least -0.005.
Response: N

Query: Exam item: decide whether the reported shrunken log2 fold change for RRIRMRPPRLPRPRPRPRNQPRP is at least -0.005.
Response: Y

Query: Exam item: decide whether the reported shrunken log2 fold change for RRIRCRPPRLPRPRPRPKAQPRP is at least -0.005.
Response: Y

Query: Exam item: decide whether the reported shrunken log2 fold change for RRIRSRPPRLPRPRPRPRDVPRP is at least -0.005.
Response: N

Query: Exam item: decide whether the reported shrunken log2 fold change for RRIRGRPPRLPRPRPRPIMSPRP is at least -0.005.
Response: Y

Query: Exam item: decide whether the reported shrunken log2 fold change for RRIRKRPPRLPRPRPRPYYAPRP is at least -0.005.
Response: Y

* * *

Kindly supply the reported shrunken log2 fold change values for the records listed here.
system: Escherichia coli TOP10; assay: shrunken log2 fold change of peptide-encoding DNA abundance (4.5 h post-induction vs induction); higher = less antimicrobial activity (less host growth inhibition); conditions: time post-induction: 4.5 h; library: site-saturation at positions 5, 18, 19, 20
# respond with the number and nothing more

Query: Fill in: shrunken log2 fold change of RRIRERPPRLPRPRPRPPEPPRP is ___
Response: 0.333

Query: Fill in: shrunken log2 fold change of RRIRGRPPRLPRPRPRPAWKPRP is ___
Response: 0.122

Query: Fill in: shrunken log2 fold change of RRIRGRPPRLPRPRPRPHHHPRP is ___
Response: -0.139

Query: Fill in: shrunken log2 fold change of RRIRHRPPRLPRPRPRPMAWPRP is ___
Response: 0.0581

Query: Fill in: shrunken log2 fold change of RRIRRRPPRLPRPRPRPIVMPRP is ___
Response: -0.0167

Query: Fill in: shrunken log2 fold change of RRIRARPPRLPRPRPRPWDQPRP is ___
Response: 0.353

Query: Fill in: shrunken log2 fold change of RRIRGRPPRLPRPRPRPLLKPRP is ___
Response: 1.39

Query: Fill in: shrunken log2 fold change of RRIRLRPPRLPRPRPRPGFSPRP is ___
Response: -0.161

Query: Fill in: shrunken log2 fold change of RRIRPRPPRLPRPRPRPDPTPRP is ___
Response: 0.166

Query: Fill in: shrunken log2 fold change of RRIRVRPPRLPRPRPRPCKKPRP is ___
Response: -0.433

Query: Fill in: shrunken log2 fold change of RRIRERPPRLPRPRPRPKESPRP is ___
Response: 0.0252

Query: Fill in: shrunken log2 fold change of RRIRTRPPRLPRPRPRPKVRPRP is ___
Response: 0.0294

Query: Fill in: shrunken log2 fold change of RRIRFRPPRLPRPRPRPRFVPRP is ___
Response: 0.181

Query: Fill in: shrunken log2 fold change of RRIRWRPPRLPRPRPRPCMKPRP is ___
Response: 0.00396

Query: Fill in: shrunken log2 fold change of RRIRMRPPRLPRPRPRPHPYPRP is ___
Response: 0.168

Query: Fill in: shrunken log2 fold change of RRIRARPPRLPRPRPRPETMPRP is ___
Response: 0.0902

Query: Fill in: shrunken log2 fold change of RRIRYRPPRLPRPRPRPFNDPRP is ___
Response: -0.102

Query: Fill in: shrunken log2 fold change of RRIRERPPRLPRPRPRPLFPPRP is ___
Response: -0.264

Query: Fill in: shrunken log2 fold change of RRIRYRPPRLPRPRPRPHETPRP is ___
Response: -0.0345

Query: Fill in: shrunken log2 fold change of RRIRKRPPRLPRPRPRPAMEPRP is ___
Response: 0.0841

Query: Fill in: shrunken log2 fold change of RRIRKRPPRLPRPRPRPMWAPRP is ___
Response: 0.184

Query: Fill in: shrunken log2 fold change of RRIRFRPPRLPRPRPRPHNEPRP is ___
Response: -0.626

Query: Fill in: shrunken log2 fold change of RRIRTRPPRLPRPRPRPHWRPRP is ___
Response: 0.027

* * *

system: Escherichia coli TOP10; experiment: shrunken log2 fold change of peptide-encoding DNA abundance (4.5 h post-induction vs induction); higher = less antimicrobial activity (less host growth inhibition); conditions: time post-induction: 4.5 h; library: site-saturation at positions 5, 18, 19, 20;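 further: peptides expressed intracellularly from a pBAD plasmid library in pooled LB shake-flask culture, induced with 0.3% L-arabinose, DNA abundance read by NGS, three biological replicates, DESeq2 with apeglm shrinkage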
Definition: the class of an entry is the range in range A = under -0.1, range B = from -0.1 up to 0.03, range C = 0.03 and over that contains its shrunken log2 fold change.

Query: Categorize the following entry: RRIRHRPPRLPRPRPRPVASPRP
Response: range A

Query: Categorize the following entry: RRIRVRPPRLPRPRPRPINIPRP
Response: range A

Query: Categorize the following entry: RRIRPRPPRLPRPRPRPYKFPRP
Response: range A

Query: Categorize the following entry: RRIRQRPPRLPRPRPRPPQPPRP
Response: range C

Query: Categorize the following entry: RRIRQRPPRLPRPRPRPVFNPRP
Response: range A

Query: Categorize the following entry: RRIRLRPPRLPRPRPRPWSQPRP
Response: range A

Query: Categorize the following entry: RRIRWRPPRLPRPRPRPRKHPRP
Response: range C

Query: Categorize the following entry: RRIRARPPRLPRPRPRPQKDPRP
Response: range C

Query: Categorize the following entry: RRIRARPPRLPRPRPRPDGKPRP
Response: range C

Query: Categorize the following entry: RRIRPRPPRLPRPRPRPGIIPRP
Response: range B

Query: Categorize the following entry: RRIRTRPPRLPRPRPRPEKNPRP
Response: range C

Query: Categorize the following entry: RRIRARPPRLPRPRPRPVKNPRP
Response: range C

Query: Categorize the following entry: RRIRYRPPRLPRPRPRPIFLPRP
Response: range A

Query: Categorize the following entry: RRIRRRPPRLPRPRPRPRYVPRP
Response: range C

Query: Categorize the following entry: RRIRFRPPRLPRPRPRPHPTPRP
Response: range A

Query: Categorize the following entry: RRIRRRPPRLPRPRPRPKGNPRP
Response: range C

Query: Categorize the following entry: RRIRWRPPRLPRPRPRPKVRPRP
Response: range B

Query: Categorize the following entry: RRIRWRPPRLPRPRPRPAPFPRP
Response: range B

Query: Categorize the following entry: RRIRQRPPRLPRPRPRPVKHPRP
Response: range A

Query: Categorize the following entry: RRIRARPPRLPRPRPRPSGEPRP
Response: range C

Query: Categorize the following entry: RRIRGRPPRLPRPRPRPAWWPRP
Response: range C

Query: Categorize the following entry: RRIRGRPPRLPRPRPRPKQSPRP
Response: range C

Query: Categorize the following entry: RRIRMRPPRLPRPRPRPYTQPRP
Response: range A

Query: Categorize the following entry: RRIRNRPPRLPRPRPRPSLYPRP
Response: range B

Query: Categorize the following entry: RRIRIRPPRLPRPRPRPDFEPRP
Response: range A

Query: Categorize the following entry: RRIRCRPPRLPRPRPRPQTRPRP
Response: range C

Query: Categorize the following entry: RRIRRRPPRLPRPRPRPTDKPRP
Response: range C

Query: Categorize the following entry: RRIRHRPPRLPRPRPRPYVIPRP
Response: range B

Query: Categorize the following entry: RRIRNRPPRLPRPRPRPQFPPRP
Response: range A

Query: Categorize the following entry: RRIRLRPPRLPRPRPRPKNNPRP
Response: range A

Query: Categorize the following entry: RRIRFRPPRLPRPRPRPNDQPRP
Response: range B

Query: Categorize the following entry: RRIRARPPRLPRPRPRPLKTPRP
Response: range C

Query: Categorize the following entry: RRIRVRPPRLPRPRPRPVNAPRP
Response: range B

Query: Categorize the following entry: RRIRQRPPRLPRPRPRPVAQPRP
Response: range C

Query: Categorize the following entry: RRIRKRPPRLPRPRPRPHFPPRP
Response: range C

Query: Categorize the following entry: RRIRNRPPRLPRPRPRPSRSPRP
Response: range B

Query: Categorize the following entry: RRIRDRPPRLPRPRPRPNVFPRP
Response: range A

Query: Categorize the following entry: RRIRGRPPRLPRPRPRPYGDPRP
Response: range A

Query: Categorize the following entry: RRIRFRPPRLPRPRPRPQQPPRP
Response: range B

Query: Categorize the following entry: RRIRLRPPRLPRPRPRPYQLPRP
Response: range A

Query: Categorize the following entry: RRIRNRPPRLPRPRPRPNCHPRP
Response: range B

Query: Categorize the following entry: RRIRIRPPRLPRPRPRPDNWPRP
Response: range A

Query: Categorize the following entry: RRIRLRPPRLPRPRPRPKINPRP
Response: range A

Query: Categorize the following entry: RRIRWRPPRLPRPRPRPYLCPRP
Response: range A

Query: Categorize the following entry: RRIRERPPRLPRPRPRPGEKPRP
Response: range B

Query: Categorize the following entry: RRIRTRPPRLPRPRPRPQRVPRP
Response: range B

Query: Categorize the following entry: RRIRYRPPRLPRPRPRPYFNPRP
Response: range A

Query: Categorize the following entry: RRIRARPPRLPRPRPRPSTFPRP
Response: range C

Query: Categorize the following entry: RRIRMRPPRLPRPRPRPIMMPRP
Response: range B

Query: Categorize the following entry: RRIRVRPPRLPRPRPRPEEQPRP
Response: range B

Query: Categorize the following entry: RRIRCRPPRLPRPRPRPHKYPRP
Response: range A

Query: Categorize the following entry: RRIRGRPPRLPRPRPRPPITPRP
Response: range C

Query: Categorize the following entry: RRIRSRPPRLPRPRPRPWQFPRP
Response: range C

Query: Categorize the following entry: RRIRTRPPRLPRPRPRPYAMPRP
Response: range A

Query: Categorize the following entry: RRIRCRPPRLPRPRPRPFKIPRP
Response: range A

Query: Categorize the following entry: RRIRKRPPRLPRPRPRPNDCPRP
Response: range B

Query: Categorize the following entry: RRIRIRPPRLPRPRPRPLCRPRP
Response: range A
